Give measured pIC50 for each item. Keep answers brief.
- Test system: Splenocyte
- procedure_details: In vitro for inhibitory activity against tyrosine specific protein kinase from murine spleen cells (T-kinase)
- Assay type: functional, cell-based
- condition_label: Mus musculus
pIC50: −log10 of the molar value.

So for CCCn1c2ccccc2c2c3c(c4c5ccccc5n(C)c4c21)C(=O)NC3 , the logged pIC50 turned out to be < 5.00

The value of pIC50 measured for the compound Cn1c2ccccc2c2c3c(c4c5ccccc5n(CC(F)F)c4c21)CNC3=O turned out to be < 5.00

The compound listed as CN1Cc2c(c3c4ccccc4n(C)c3c3c2c2ccccc2n3CCC#N)C1=O has a reported pIC50 of < 5.00

So, CCn1c2ccccc2c2c3c(c4c5ccccc5n(CCC#N)c4c21)CNC3=O ? Its pIC50 was < 5.00

Per the record, CN[C@@H]1C[C@H]2O[C@@](C)([C@@H]1OC)n1c3ccccc3c3c4c(c5c6ccccc6n2c5c31)C(=O)NC4 has pIC50 of 6.40

Lab book: pIC50 of Cn1c2ccccc2c2c3c(c4c5ccccc5n(CCC#N)c4c21)CNC3=O noted as < 5.00

---

Assignment: determine reported IC50 for the given molecules.
- study_target: Protein kinase C (PKC)
- procedure_details: In vitro for inhibitory activity against protein kinase C from rat brain
Reply with just the number (in nM).

Entry CCCn1c2ccccc2c2c3c(c4c5ccccc5n(C)c4c21)C(=O)NC3 — recorded IC50 = 100

Sure, the documented IC50 for CC(C)=CCn1c2ccccc2c2c3c(c4c5ccccc5[nH]c4c21)C(=O)NC3 is 3500

Item: Cn1c2ccccc2c2c3c(c4c5ccccc5n(C)c4c21)C(=O)NC3 | IC50: 450

# molecule Cn1c2ccccc2c2c3c(c4c5ccccc5n(CC(F)F)c4c21)CNC3=O ; its IC50 = 32

Entry O=C(O)CCn1c2ccccc2c2c3c(c4c5ccccc5[nH]c4c21)C(=O)NC3 ; IC50 = 590

For record CCCn1c2ccccc2c2c3c(c4c5ccccc5n(CCC)c4c21)C(=O)NC3 the listed IC50 is 8100

Reported IC50 of N#CCCn1c2ccccc2c2c3c(c4c5ccccc5[nH]c4c21)C(=O)NC3 : 75

Data point: CCn1c2ccccc2c2c3c(c4c5ccccc5n(CCC#N)c4c21)CNC3=O ; IC50 = 27

O=C1NCc2c1c1c3ccccc3[nH]c1c1[nH]c3ccccc3c21 has a reported IC50 of 680

---

Give IC50 for every item shown.
- study_target: cGMP-dependent protein kinase 1 (Bos taurus, UniProt P00516)
- Sequence (P00516 whole entry): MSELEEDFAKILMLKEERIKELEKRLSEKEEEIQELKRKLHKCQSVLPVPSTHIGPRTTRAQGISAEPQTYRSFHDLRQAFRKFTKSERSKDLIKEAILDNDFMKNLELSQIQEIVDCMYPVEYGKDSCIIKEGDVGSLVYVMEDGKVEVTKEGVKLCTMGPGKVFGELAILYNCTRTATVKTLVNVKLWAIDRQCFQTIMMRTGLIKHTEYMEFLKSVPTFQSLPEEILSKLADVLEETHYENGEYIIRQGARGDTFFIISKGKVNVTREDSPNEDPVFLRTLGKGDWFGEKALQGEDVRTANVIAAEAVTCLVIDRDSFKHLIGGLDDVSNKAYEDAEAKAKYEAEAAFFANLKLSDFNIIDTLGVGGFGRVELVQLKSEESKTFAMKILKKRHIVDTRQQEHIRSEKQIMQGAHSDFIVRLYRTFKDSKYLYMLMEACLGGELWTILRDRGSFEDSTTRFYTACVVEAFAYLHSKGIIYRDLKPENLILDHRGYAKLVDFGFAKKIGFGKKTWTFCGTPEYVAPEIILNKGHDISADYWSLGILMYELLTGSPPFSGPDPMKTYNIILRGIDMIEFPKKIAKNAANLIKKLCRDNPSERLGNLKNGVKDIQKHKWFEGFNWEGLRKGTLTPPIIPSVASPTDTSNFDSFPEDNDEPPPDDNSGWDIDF

IC50 measured on CCn1c2ccccc2c2c3c(c4c5ccccc5n(CC)c4c21)C(=O)NC3 = 0.7 µM

According to the records, this compound CN1Cc2c(c3c4ccccc4n(C)c3c3c2c2ccccc2n3CCC#N)C1=O displays IC50 of > 30 µM

Noted for O=C1NCc2c1c1c3ccccc3[nH]c1c1[nH]c3ccccc3c21 : its IC50 reads 0.65 µM

The compound listed as Cn1c2ccccc2c2c3c(c4c5ccccc5[nH]c4c21)C(=O)NC3 has a reported IC50 of 0.4 µM

Sure, the documented IC50 for O=C1NCc2c1c1c3ccccc3[nH]c1c1c2c2ccccc2n1CC(O)CO (stereo unspecified) is 0.28 µM

Field IC50 (entry Cn1c2ccccc2c2c3c(c4c5ccccc5n(CC(F)F)c4c21)CNC3=O ) reads 0.71 µM
